Below, each entry is listed alongside its reported k3/ki.
# target: Caspase-3 (Homo sapiens)
# protocol summary: Binding affinity against Caspase-3

• CC(C)[C@H](NC(=O)COc1cccc2ccccc12)C(=O)N[C@@H](CC(=O)O)C(=O)COc1[nH]cnc2nncc1-2 = 906 1/m/s

Query: Form field: reported k3/ki of "CC(C)[C@H](NC(=O)COc1cccc2ccccc12)C(=O)N[C@@H](CC(=O)O)C(=O)CSc1nnc(-c2ccccc2)o1"
Reply: 4800 1/m/s

Query: Next record, please: "CC(C)[C@H](NC(=O)COc1cccc2ccccc12)C(=O)N[C@@H](CC(=O)O)C(=O)CSc1nncn1C"
Reply: 2260 1/m/s

Query: Also check "CC(C)[C@H](NC(=O)COc1cccc2ccccc12)C(=O)N[C@@H](CC(=O)O)C(=O)CSc1nc(-c2ccccc2)no1"
Reply: 38100 1/m/s

Query: "CC(C)c1cc(OCC(=O)[C@H](CC(=O)O)NC(=O)[C@@H](NC(=O)COc2cccc3ccccc23)C(C)C)no1" , same question.
Reply: 21800 1/m/s

Query: Another molecule to look at: "CC(C)[C@H](NC(=O)COc1cccc2ccccc12)C(=O)N[C@@H](CC(=O)O)C(=O)COn1nnc2ccccc2c1=O"
Reply: 169000 1/m/s

Query: Would you kindly repeat that for "CC(C)[C@H](NC(=O)COc1cccc2ccccc12)C(=O)N[C@@H](CC(=O)O)C(=O)COc1cc(C(F)(F)F)ncn1" ?
Reply: 1750 1/m/s

###

# target: Caspase-6 (Homo sapiens) (UniProt P55212)
# Sequence (P55212 24-179 limits assumed): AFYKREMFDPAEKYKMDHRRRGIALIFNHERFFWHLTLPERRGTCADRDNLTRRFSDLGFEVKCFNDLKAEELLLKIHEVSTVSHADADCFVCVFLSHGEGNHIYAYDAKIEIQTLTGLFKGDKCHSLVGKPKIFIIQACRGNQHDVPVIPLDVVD
# Sequence (P55212 194-293 limits assumed): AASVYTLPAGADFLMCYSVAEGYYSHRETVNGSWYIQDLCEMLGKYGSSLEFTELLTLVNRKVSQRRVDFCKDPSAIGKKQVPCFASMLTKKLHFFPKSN
# protocol summary: Binding affinity against Caspase-6
quantity measured: k3/ki

Query: Param item = "CC(C)[C@H](NC(=O)COc1cccc2ccccc12)C(=O)N[C@@H](CC(=O)O)C(=O)COc1cncc2ccccc12" ; retrieve measured k3/ki.
Reply: 0 1/m/s

Query: // repeat for "CC(C)[C@H](NC(=O)COc1cccc2ccccc12)C(=O)N[C@@H](CC(=O)O)C(=O)COc1nncc(Cl)c1Cl" and report
Reply: 8 1/m/s

Query: What do we get for "COC(=O)c1cc(OCC(=O)[C@H](CC(=O)O)NC(=O)[C@@H](NC(=O)COc2cccc3ccccc23)C(C)C)no1" ?
Reply: 5800 1/m/s

Query: Now consider "CC(C)[C@H](NC(=O)COc1cccc2ccccc12)C(=O)N[C@@H](CC(=O)O)C(=O)CSc1nc2ccccc2[nH]1" .
Reply: 25 1/m/s

Query: Same question, "CC(C)[C@H](NC(=O)COc1cccc2ccccc12)C(=O)N[C@@H](CC(=O)O)C(=O)COc1cc(C(F)(F)F)nn1-c1ccccc1" this time
Reply: 23900 1/m/s

Query: Then "Cc1cc(C)nc(OCC(=O)[C@H](CC(=O)O)NC(=O)[C@@H](NC(=O)COc2cccc3ccccc23)C(C)C)n1" ?
Reply: 0 1/m/s

###

Reported values of k3/ki for individual entries
# target: Caspase-1 (Mus musculus) (UniProt P29452)
# Sequence (whole entry): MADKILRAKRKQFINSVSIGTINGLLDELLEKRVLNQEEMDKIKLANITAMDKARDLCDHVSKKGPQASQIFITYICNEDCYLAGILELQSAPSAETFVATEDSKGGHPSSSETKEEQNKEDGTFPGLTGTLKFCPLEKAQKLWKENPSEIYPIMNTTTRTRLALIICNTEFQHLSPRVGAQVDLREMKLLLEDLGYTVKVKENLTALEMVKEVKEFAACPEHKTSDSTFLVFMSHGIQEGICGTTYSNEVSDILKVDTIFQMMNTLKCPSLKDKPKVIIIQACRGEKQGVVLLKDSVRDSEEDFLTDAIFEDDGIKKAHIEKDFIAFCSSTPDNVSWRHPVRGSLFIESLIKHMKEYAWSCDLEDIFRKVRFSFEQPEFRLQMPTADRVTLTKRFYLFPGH
# protocol summary: Binding affinity against mouse Caspase-1

- Cc1cc(OCC(=O)[C@H](CC(=O)O)NC(=O)[C@@H](NC(=O)COc2cccc3ccccc23)C(C)C)nc(C)n1: 1330 1/m/s

Switching to the query record.
Query: GET /values?readout=k3/ki&item= "CC(C)[C@H](NC(=O)COc1cccc2ccccc12)C(=O)N[C@@H](CC(=O)O)C(=O)CSc1nc(-c2ccccc2)c(-c2ccccc2)o1"
Reply: 200 1/m/s
